Measurement description: Population pharmacokinetic
Assay type: in vivo, human (patients with advanced cancers)
Settings: human, plasma, oral
Experimental endpoint: half-life
Include the unit after the number when you answer.

-- ask Query (molecule): `CNC(=O)c1cccc2cc(Oc3ccnc4cc(OCC5(N)CC5)c(OC)cc34)ccc12` ; field requested: half-life
-- reply 8.58 min
